Target: T1, HLA-A2/E7(11-19) tetramer (human; HPV 16)
T1 construct: also called E7(11-19) peptide-MHC tetramer; E7 tet
Assay: flow cytometry, tetramer + anti-CD8; transfected mix of CD8- and CD8+ Jurkat-derived cells;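 further: cells transiently transfected with TCR-encoding plasmids, analysed 48 h afterwards by co-staining with HLA-A*02:01 peptide tetramer and anti-CD8 antibody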
Entries and their measured % cells E7 tet+/CD8- quadrant follow.
Write the answer as a number in %, unit excluded.

# binder, value
measured = [
    ("TCR 31 (codon-optimized, cysteine-modified) (TCR, V domains shown) V domain 1: DQQVKQNSPSLSVQEGRISILNCDYTNSMFDYFLWYKKYPAEGPTFLISISSIKDKNEDGRFTVFLNKSAKHLSLHIVPSQPGDSAVYFCAASERGTYKYIFGTGTRLKVLA V domain 2: GAGVSQSPSNKVTEKGKDVELRCDPISGHTALYWYRQSLGQGLEFLIYFQGNSAPDKSGLPSDRFSAERTGGSVSTLTIQRTQQEDSAVYLCASSRFLGSTDTQYFGPGTRLTVLE", 0.042),
]

// returns reported % cells E7 tet+/CD8- quadrant for input TCR 43 (codon-optimized, cysteine-modified) (TCR, V domains shown) V domain 1: QKEVEQNSGPLSVPEGAIASLNCTYSDRGSQSFFWYRQYSGKSPELIMFIYSNGDKEDGRFTAQLNKASQYVSLLIRDSQPSDSATYLCAVNVPTSGTYKYIFGTGTRLKVLA V domain 2: EPEVTQTPSHQVTQMGQEVILRCVPISNHLYFYWYRQILGQKVEFLVSFYNNEISEKSEIFDDQFSVERPDGSNFTLKIRSTKLEDSAMYFCASTPRDSYEQYFGPGTRLTVTE
1.88

// returns reported % cells E7 tet+/CD8- quadrant for input TCR 51 (codon-optimized, cysteine-modified) (TCR, V domains shown) V domain 1: QKEVEQNSGPLSVPEGAIASLNCTYSDRGSQSFFWYRQYSGKSPELIMSIYSNGDKEDGRFTAQLNKASQYVSLLIRDSQPSDSATYLCAVNMRGGGSNYKLTFGKGTLLTVNP V domain 2: EPEVTQTPSHQVTQMGQEVILRCVPISNHLYFYWYRQILGQKVEFLVSFYNNEISEKSEIFDDQFSVERPDGSNFTLKIRSTKLEDSAMYFCAIASRVSYEQYFGPGTRLTVTE
2.06
